# MEASUREMENT_PROTOCOL: Cmax in Sprague-Dawley rat at 1 mg/kg, iv up to 24 hrs by LC-MS/MS analysis
# Format: ADME, organism-based
# Set-up: route intravenous, dose 1 mg/kg, time <=24
# CONDITION_INFO: in vivo
PARAMETER_MEASURED: Cmax (ng/mL)
The reply should contain only the number, in ng/mL.

Value of measured Cmax for the entry CC(C)(O)COc1ccc2c(Oc3ccc(Nc4nccc5[nH]cc(-c6ccccc6)c(=O)c45)cc3F)ccnc2c1 : 500

----------
Listing of recorded log10(half-life) by entry.
# MEASUREMENT_PROTOCOL: Half life in rat liver microsomes
# Format: ADME, Microsome
Values reflect log10 of reported half-life (h).

COc1cc2c(Oc3ccc(Nc4nccc5[nH]cc(-c6ccc(F)cc6)c(=O)c45)cc3F)ccnc2cc1OCC(C)(C)O; 0.71

Form field log10(half-life), entry CC(C)(O)COc1ccc2c(Oc3ccc(Nc4nccc5[nH]cc(-c6ccc(F)cc6)c(=O)c45)cc3F)ccnc2c1 : 0.62

What the record says about CC(C)(O)COc1ccc2c(Oc3ccc(Nc4nccc5[nH]cc(-c6ccccc6)c(=O)c45)cc3F)ccnc2c1 : log10(half-life) is 0.73

The reported log10(half-life) of the molecule COc1cc2c(Oc3ccc(Nc4nccc5[nH]cc(-c6ccc(F)cc6)c(=O)c45)cc3F)ccnc2cc1OCCO was 0.17

Notebook: COC(C)(C)COc1ccc2c(Oc3ccc(Nc4nccc5[nH]cc(-c6ccc(F)cc6)c(=O)c45)cc3F)ccnc2c1 , log10(half-life) read as 0.16

The value of log10(half-life) measured for the molecule O=c1c(-c2ccc(F)cc2)c[nH]c2ccnc(Nc3ccc(Oc4ccnc5cc(OCCO)ccc45)c(F)c3)c12 turned out to be 0.18

Entry under test: O=c1c(-c2ccccc2)c[nH]c2ccnc(Nc3ccc(Oc4ccnc5cc(OCCCN6CCOCC6)ccc45)c(F)c3)c12 . Its log10(half-life) was -0.53

// log10(half-life) value for O=c1c(-c2ccc(F)cc2)c[nH]c2ccnc(Nc3ccc(Oc4ccnc5cc(OCCN6CCOCC6)ccc45)c(F)c3)c12 : -0.96

log10(half-life) for CC(O)COc1ccc2c(Oc3ccc(Nc4nccc5[nH]cc(-c6ccc(F)cc6)c(=O)c45)cc3F)ccnc2c1 (centres undefined) is 0.15

----------
# MEASUREMENT_PROTOCOL: Cmax in Sprague-Dawley rat at 5 mg/kg, po up to 24 hrs by LC-MS/MS analysis
# Format: ADME, organism-based
# Design: route oral, dose 5 mg/kg, time <=24
# CONDITION_INFO: in vivo
PARAMETER_MEASURED: Cmax (ng/mL)
Use ng/mL as the unit, but write only the number.

Entry CC(C)(O)COc1ccc2c(Oc3ccc(Nc4nccc5[nH]cc(-c6ccccc6)c(=O)c45)cc3F)ccnc2c1 ; Cmax = 1500

----------
Hi! I'm sharing some pIC50 results obtained with Hepatocyte growth factor receptor (Homo sapiens, UniProt P08581).
Sequence (P08581 whole entry): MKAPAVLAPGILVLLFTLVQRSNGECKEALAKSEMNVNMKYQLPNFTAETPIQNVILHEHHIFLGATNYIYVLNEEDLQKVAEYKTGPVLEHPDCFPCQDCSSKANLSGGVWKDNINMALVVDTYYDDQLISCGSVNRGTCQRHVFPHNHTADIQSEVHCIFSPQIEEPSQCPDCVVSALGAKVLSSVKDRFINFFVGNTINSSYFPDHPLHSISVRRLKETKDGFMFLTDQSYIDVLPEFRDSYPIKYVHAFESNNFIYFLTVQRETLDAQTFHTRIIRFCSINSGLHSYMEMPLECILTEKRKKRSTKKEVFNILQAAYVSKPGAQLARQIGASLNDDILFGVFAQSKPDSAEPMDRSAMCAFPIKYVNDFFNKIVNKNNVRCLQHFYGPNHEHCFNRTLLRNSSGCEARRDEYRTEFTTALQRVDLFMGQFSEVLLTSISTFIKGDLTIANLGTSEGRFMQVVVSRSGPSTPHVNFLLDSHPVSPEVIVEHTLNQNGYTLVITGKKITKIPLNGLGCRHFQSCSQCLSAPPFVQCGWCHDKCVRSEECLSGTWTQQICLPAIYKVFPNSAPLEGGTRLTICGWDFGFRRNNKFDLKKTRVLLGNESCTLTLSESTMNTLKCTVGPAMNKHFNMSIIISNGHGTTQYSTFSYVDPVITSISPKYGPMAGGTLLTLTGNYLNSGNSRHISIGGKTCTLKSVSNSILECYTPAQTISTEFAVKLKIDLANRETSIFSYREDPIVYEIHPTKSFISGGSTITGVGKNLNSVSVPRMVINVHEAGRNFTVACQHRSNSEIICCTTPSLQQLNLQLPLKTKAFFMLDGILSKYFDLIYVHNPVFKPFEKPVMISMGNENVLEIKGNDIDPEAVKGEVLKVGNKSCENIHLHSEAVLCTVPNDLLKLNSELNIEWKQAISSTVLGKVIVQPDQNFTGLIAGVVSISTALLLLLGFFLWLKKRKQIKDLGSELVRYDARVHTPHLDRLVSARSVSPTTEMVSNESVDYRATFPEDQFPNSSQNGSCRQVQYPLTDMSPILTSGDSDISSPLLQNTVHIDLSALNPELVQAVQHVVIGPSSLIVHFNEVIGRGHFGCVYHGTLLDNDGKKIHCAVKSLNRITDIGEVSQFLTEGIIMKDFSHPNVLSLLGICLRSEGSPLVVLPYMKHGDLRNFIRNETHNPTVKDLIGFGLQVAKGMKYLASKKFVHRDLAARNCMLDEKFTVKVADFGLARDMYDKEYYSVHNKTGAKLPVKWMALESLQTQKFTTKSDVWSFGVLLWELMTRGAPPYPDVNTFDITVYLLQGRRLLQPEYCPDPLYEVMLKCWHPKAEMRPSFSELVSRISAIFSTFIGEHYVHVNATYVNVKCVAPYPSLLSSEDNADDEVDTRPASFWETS
Quick note: pIC50 means taking -log10 of the concentration in moles per liter.

COCCOc1cc2nccc(Oc3ccc(Nc4nccc5[nH]cc(-c6ccc(F)cc6)c(=O)c45)cc3F)c2cc1OC; 7.08

Hepatocyte growth factor receptor (Homo sapiens, UniProt P08581) data for COc1cc2nccc(Oc3ccc(Nc4nccc5[nH]cc(-c6ccc(F)cc6)c(=O)c45)cc3F)c2cc1OC ; its pIC50: 7.12

The compound O=c1c(-c2ccc(F)cc2)c[nH]c2ccnc(Nc3ccc(Oc4ccnc5cc(O)ccc45)c(F)c3)c12 , tested on Hepatocyte growth factor receptor (Homo sapiens, UniProt P08581), showed pIC50 of 8.30

Known value: Hepatocyte growth factor receptor (Homo sapiens, UniProt P08581) pIC50 of the compound COc1cc2c(Oc3ccc(Nc4nccc5[nH]cc(-c6ccc(F)cc6)c(=O)c45)cc3F)ccnc2cc1OCC(C)(C)OC equals 7.92

----------
# MEASUREMENT_PROTOCOL: Half life in Sprague-Dawley rat at 5 mg/kg, po up to 24 hrs by LC-MS/MS analysis
# Format: ADME, organism-based
# CONDITION_INFO: in vivo
PARAMETER_MEASURED: half-life (h)
The reply should contain only the number, in h.

The reported half-life of the compound CC(C)(O)COc1ccc2c(Oc3ccc(Nc4nccc5[nH]cc(-c6ccccc6)c(=O)c45)cc3F)ccnc2c1 was 4.9

----------
# MEASUREMENT_PROTOCOL: Clearance in Sprague-Dawley rat at 1 mg/kg, iv up to 24 hrs by LC-MS/MS analysis
# Assay type: ADME, organism-based
# CONDITION_INFO: in vivo
PARAMETER_MEASURED: clearance (mL/min/kg)
Response body: numeric value in mL/min/kg, unit text excluded.

The value of clearance measured for the molecule CC(C)(O)COc1ccc2c(Oc3ccc(Nc4nccc5[nH]cc(-c6ccccc6)c(=O)c45)cc3F)ccnc2c1 turned out to be 3.33

----------
# MEASUREMENT_PROTOCOL: Tmax in Sprague-Dawley rat at 5 mg/kg, po up to 24 hrs by LC-MS/MS analysis
# Format: ADME, organism-based
# CONDITION_INFO: in vivo
PARAMETER_MEASURED: Tmax (h)
Express the result in h but write the number alone.

Tmax in this record for CC(C)(O)COc1ccc2c(Oc3ccc(Nc4nccc5[nH]cc(-c6ccccc6)c(=O)c45)cc3F)ccnc2c1 : 4

----------
# MEASUREMENT_PROTOCOL: Half life in rat liver microsomes
# Format: ADME, Microsome
Each item that follows carries a reported half-life.
Give the number; min is assumed, so skip it.

COCCOc1cc2nccc(Oc3ccc(Nc4nccc5[nH]cc(-c6ccc(F)cc6)c(=O)c45)cc3F)c2cc1OC; 63.4
O=c1c(-c2ccc(F)cc2)c[nH]c2ccnc(Nc3ccc(Oc4ccnc5cc(O)ccc45)c(F)c3)c12; 53.6
CC(C)COc1ccc2c(Oc3ccc(Nc4nccc5[nH]cc(-c6ccc(F)cc6)c(=O)c45)cc3F)ccnc2c1; 90.1

Attention now shifts to the item below.
half-life measured on COCCOc1ccc2c(Oc3ccc(Nc4nccc5[nH]cc(-c6ccc(F)cc6)c(=O)c45)cc3F)ccnc2c1 = 104

----------
# TARGET_OR_SYSTEM: Vascular endothelial growth factor receptor 3 (Homo sapiens)
# Sequence (P35916 whole entry): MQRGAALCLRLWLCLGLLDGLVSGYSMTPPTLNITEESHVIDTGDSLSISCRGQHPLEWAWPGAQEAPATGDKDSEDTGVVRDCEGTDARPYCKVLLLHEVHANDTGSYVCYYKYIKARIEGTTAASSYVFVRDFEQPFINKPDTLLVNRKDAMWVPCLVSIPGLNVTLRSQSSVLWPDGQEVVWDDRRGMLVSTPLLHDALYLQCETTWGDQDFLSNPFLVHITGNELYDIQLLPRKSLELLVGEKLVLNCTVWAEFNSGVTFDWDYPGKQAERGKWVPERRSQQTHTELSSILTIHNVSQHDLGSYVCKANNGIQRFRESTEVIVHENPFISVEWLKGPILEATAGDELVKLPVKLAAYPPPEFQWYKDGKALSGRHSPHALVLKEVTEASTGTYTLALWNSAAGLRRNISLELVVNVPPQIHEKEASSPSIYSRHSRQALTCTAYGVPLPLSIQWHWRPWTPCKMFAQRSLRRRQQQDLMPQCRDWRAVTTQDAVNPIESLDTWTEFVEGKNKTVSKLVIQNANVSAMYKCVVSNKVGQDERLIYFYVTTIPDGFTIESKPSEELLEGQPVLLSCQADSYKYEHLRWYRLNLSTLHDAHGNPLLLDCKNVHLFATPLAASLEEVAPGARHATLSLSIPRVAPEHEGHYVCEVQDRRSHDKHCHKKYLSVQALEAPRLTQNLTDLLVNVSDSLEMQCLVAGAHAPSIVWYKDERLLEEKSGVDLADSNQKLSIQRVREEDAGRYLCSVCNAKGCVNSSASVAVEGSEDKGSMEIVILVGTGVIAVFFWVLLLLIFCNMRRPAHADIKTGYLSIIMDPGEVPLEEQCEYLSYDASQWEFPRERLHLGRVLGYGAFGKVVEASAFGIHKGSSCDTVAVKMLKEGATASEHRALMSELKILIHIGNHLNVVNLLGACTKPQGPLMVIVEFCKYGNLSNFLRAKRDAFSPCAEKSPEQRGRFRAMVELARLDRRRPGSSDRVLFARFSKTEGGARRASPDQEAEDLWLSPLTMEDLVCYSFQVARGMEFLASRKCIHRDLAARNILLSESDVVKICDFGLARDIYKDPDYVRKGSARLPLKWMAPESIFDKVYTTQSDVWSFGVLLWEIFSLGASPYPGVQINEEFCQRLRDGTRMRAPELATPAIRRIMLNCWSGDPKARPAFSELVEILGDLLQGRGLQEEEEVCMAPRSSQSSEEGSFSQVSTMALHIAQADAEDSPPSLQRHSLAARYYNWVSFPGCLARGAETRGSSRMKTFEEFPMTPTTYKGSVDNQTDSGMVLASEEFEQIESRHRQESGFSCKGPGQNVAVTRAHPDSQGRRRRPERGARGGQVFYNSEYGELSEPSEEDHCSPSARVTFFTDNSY
PARAMETER_MEASURED: pIC50
FYI, pIC50 means -log10 of a concentration in mol per litre.

Result for CC(C)(O)COc1ccc2c(Oc3ccc(Nc4nccc5[nH]cc(-c6ccccc6)c(=O)c45)cc3F)ccnc2c1 , tested on Vascular endothelial growth factor receptor 3 (Homo sapiens), pIC50: 6.94

----------
# MEASUREMENT_PROTOCOL: AUC (0 to infinity) in Sprague-Dawley rat at 5 mg/kg, po up to 24 hrs by LC-MS/MS analysis
# Assay type: ADME, organism-based
# Set-up: route oral, dose 5 mg/kg, time <=24
# CONDITION_INFO: in vivo
PARAMETER_MEASURED: AUC(0-inf) (ng·h/mL)
Express it in ng·h/mL; write the number only.

Measured AUC(0-inf) of CC(C)(O)COc1ccc2c(Oc3ccc(Nc4nccc5[nH]cc(-c6ccccc6)c(=O)c45)cc3F)ccnc2c1 : 10700

----------
# MEASUREMENT_PROTOCOL: cells
# CONDITION_INFO: Homo sapiens, U-87 MG, 72 h
In plain terms, low IC50, meaning strictly below 5 µM, gives class 1, and everything else gives class 0.

CC(C)(O)COc1ccc2c(Oc3ccc(Nc4nccc5[nH]cc(-c6ccccc6)c(=O)c45)cc3F)ccnc2c1; class 1
CC(O)COc1ccc2c(Oc3ccc(Nc4nccc5[nH]cc(-c6ccc(F)cc6)c(=O)c45)cc3F)ccnc2c1 (stereo not given); class 0
COCCOc1cc2nccc(Oc3ccc(Nc4nccc5[nH]cc(-c6ccc(F)cc6)c(=O)c45)cc3F)c2cc1OC; class 0
COc1cc2c(Oc3ccc(Nc4nccc5[nH]cc(-c6ccc(F)cc6)c(=O)c45)cc3F)ccnc2cc1OCC(C)(C)O; class 1
COc1cc2c(Oc3ccc(Nc4nccc5[nH]cc(-c6ccc(F)cc6)c(=O)c45)cc3F)ccnc2cc1OCCO; class 1

## Task Threshold test, IC50 < 5 µM: O=c1c(-c2ccc(F)cc2)c[nH]c2ccnc(Nc3ccc(Oc4ccnc5cc(O)ccc45)c(F)c3)c12
## Result class 0

## Task Does the reported IC50 of CC(C)(O)COc1ccc2c(Oc3ccc(Nc4nccc5[nH]cc(-c6ccc(F)cc6)c(=O)c45)cc3F)ccnc2c1 stay below 5 µM?
## Result class 1

## Task Just wondering, is IC50 of COC(C)(C)COc1ccc2c(Oc3ccc(Nc4nccc5[nH]cc(-c6ccc(F)cc6)c(=O)c45)cc3F)ccnc2c1 below 5 µM?
## Result class 0
